- System: gastric secretion in pylorus-ligated Sprague-Dawly rats
- assay: Inhibition of gastric secretion (pylorus-ligated rats, Shay method)
- Type: in vivo
- appliedConditions: 20 mg/kg intraduodenally, 5 hours, gastric juice amount relative to omeprazole, equation (I)
Structures can show the parent of a compound that is named as a salt.
testReadout: Relative volume
Output spec: single numeric token, no unit.

INSERT INTO measurements (compound, tgt, reportedmeasurement) VALUES
  ('Cc1c(COC(=O)CN2CCCCC2)nc(Nc2ccc(F)cc2)nc1N1CCc2ccccc2C1C.Cl.Cl (stereo not shown)', 'gastric secretion in pylorus-ligated Sprague-Dawly rats', 0.99),
  ('C=CCNc1nc(C)c(C)c(N2CCc3ccccc3C2)n1 [Example 2, hydrochloride]', 'gastric secretion in pylorus-ligated Sprague-Dawly rats', 0.69),
  ('Cc1csc(Nc2nc(C)c(C)c(N3CCc4ccccc4C3)n2)n1.Cl', 'gastric secretion in pylorus-ligated Sprague-Dawly rats', 1.58);

Proceed to the following item.
Problem: Look up Relative volume for this compound: Cc1ccccc1Nc1nc(CO)c(C)c(N2CCc3ccccc3C2C)n1.Cl (stereo not shown)
Result: 0.81

Every entry's value here was drawn from patent US6352993B1.
